System: MCF7 breast
Assay: NCI tumour cell line growth inhibition, 48 h
Catalogue of compounds with associated TGI

Query: Give its TGI value. Item: COC(=O)c1ccc(CN2CCc3c([nH]c4ccccc34)C2CO)o1 (configuration not stated)
Reply: > 10 µM

---
Query: Which TGI reading was recorded for the compound `[N-]=N[N+]#I1OC(C(F)(F)F)(C(F)(F)F)c2ccccc21` ?
Reply: 27.3 µM

Query: // same read-out, input: `CCC(=O)Sc1ccccc1C(=O)Nc1ccc(Cl)cc1`
Reply: 36.2 µM

Query: Also check C=C1CC2CC[C@@]34C[C@@H]5O[C@@H]6C(O[C@H]7CC[C@H](CC(=O)OC8[C@@H](C)C9OC%10C[C@]%11(C[C@@H]%12O[C@@]%13(C[C@@H](C)[C@@H]%12O%11)C[C@H](C)[C@@H]%11OC%12CC(C(O)CO)OC%12C[C@@H]%11O%13)OC%10CC9O[C@H]8C[C@H]8O[C@@H](CC[C@@H]1O2)C[C@@H](C)C8=C)O[C@@H]7[C@@H]6O3)C5O4 (some centres not stated)
Reply: > 1.48 µM

Query: Note, next up: C=CC1CC12C(=O)C1OC2(C)C2C(=O)c3ccccc3C(=O)C12 (configuration not stated)
Reply: > 76.1 µM

Query: Field entry: `CO/N=C(\c1ccccc1)c1cnn(-c2ccccc2)c1N`
Reply: > 25 µM

Query: Now consider `Cc1c(C)c(C)c(-n2c(=O)n(C)c(=O)n2C(C)(C)C)c(C)c1C` .
Reply: > 100 µM

---

Tested on: TK-10 renal
Test: NCI tumour cell line growth inhibition, 48 h
Let's look at some compounds and their measured TGI.

A selection of reference data follows.
Query: # get_value(readout='TGI', item= `O=C(NC1CCCCC1)c1c(O)[nH]c(=S)[nH]c1=O` )
Reply: > 100 µM

Query: Continue with `C[N+]1(C)C2Cc3ccccc3C1Cc1ccccc12`
Reply: > 100 µM

Query: Param item: COc1ccc(C(=O)C2CC3(CCC2(O)c2ccc(OC)cc2)CC(=O)Nc2ccccc2C3=O)cc1 (configuration not stated)
Reply: > 100 µM

Query: How about this compound: `[N-]=N[N+]#I1OC(C(F)(F)F)(C(F)(F)F)c2ccccc21`
Reply: 32 µM

Query: Same question for `O=C1Nc2ccccc2C(=O)OC(Cc2ccccc2)=Nc2ccccc21` please.
Reply: > 100 µM

Continuing:
Query: Need TGI, item `O=C(NCc1cn(Cc2cccc(Oc3ccccc3)c2)nn1)c1cccnc1Nc1ccccc1`
Reply: 28.4 µM

Query: Here is the next compound: CCCCN(CC)C(=O)C(=O)C1C(=O)Nc2ccccc2S1=O (configuration not stated)
Reply: > 100 µM

Query: Same again, this time with `COC(=O)N1[C@H]2Cc3c(OC)c(C)c(OC)c(OC)c3[C@@H]1/C(=C\c1cc(OC)c(OC)c(C)c1OC)N(Cc1ccccc1)C2=O`
Reply: > 100 µM

Query: // next record N#CC(c1ccc(O)cc1)N1CCN(C(C#N)c2ccc(O)cc2)CC1 (configuration not stated)
Reply: > 100 µM

Query: Next entry: CCOC(C)OCC#CCCBr (configuration not stated)
Reply: > 100 µM

Query: Also `COC(=O)Cc1c([C@@H]2Nc3ccccc3[C@H]2CC(=O)OC)[nH]c2ccccc12` , if possible.
Reply: > 100 µM

Query: Follow-up entry: O=c1cc2n(c(=O)[nH]1)C1OC(C(O)C1O)[C@@H]2CCO (some centres not stated)
Reply: > 100 µM

Query: Also check COc1cc2c(cc1OC)C13CCN4CC5=CCOC(CC(=O)O)C(C5CC41)C3N2 (configuration not stated)
Reply: > 100 µM

Query: Same again, this time with `Cn1ncc2c(Nc3ccc(Br)cc3)nc(Nc3ccc(Br)cc3)nc21`
Reply: 19 µM

Query: // query: O=c1cnn(C2OC(CO)C(O)C(F)C2O)c(=O)[nH]1 (configuration not stated)
Reply: > 100 µM

Query: // next record `CCC(=O)Sc1ccccc1C(=O)Nc1ccc(Cl)cc1`
Reply: 76.9 µM

Query: Lookup `NCCC1(N)CCNCC1`
Reply: > 100 µM
